experimental-system: T1, P9
T1 chain: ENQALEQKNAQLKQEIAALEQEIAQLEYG
run-description: two-hybrid library CC1;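 note: natural log of median RNA to DNA barcode read ratio; higher means stronger binding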
condition-info: mean of both orientations
reported-property: interaction score
Keep the answer to the number alone.

Please review the following examples before continuing.
KNERLKEEIQRLEQENQQLEEKISQLKYGC [P6SC2]; -1.47
EIQQLEEEISQLEQKNSQLKEKNQQLKYG [P3mS]; -2.34
KNAQLKEENAALEEKIQQLKEKIQALKYG [P10]; 0.493
ENSQLEEKISQLKQKNSQLKEEIQQLEYG [P5mS]; -2.67

Data request: Requested read-out: interaction score. Entry: KISQLKQKIQQLKQENQQLEEENSQLEYG [P4mS]
Data returned: -2.65

Data request: For the binder shown here, KNSQLKEEIQQLEEENQQLEEKISQLKYG [P6mS] , give the reported interaction score.
Data returned: -2.37
